Data origin, for the record: patent US20240262812A1

target: chemokine receptor CCR9 (Homo sapiens); construct: expressed in transfected cells; test: CCR9 antagonistic activity, calcium flow (Fluo-4, FlexStation), CCL25 agonist; assay type: cell-based; conditions: 100 μM; antagonistic mode, CCL25 150 nM; read-out: Inhibition rate (%) (100 μM)
Sequence (P51686 whole entry): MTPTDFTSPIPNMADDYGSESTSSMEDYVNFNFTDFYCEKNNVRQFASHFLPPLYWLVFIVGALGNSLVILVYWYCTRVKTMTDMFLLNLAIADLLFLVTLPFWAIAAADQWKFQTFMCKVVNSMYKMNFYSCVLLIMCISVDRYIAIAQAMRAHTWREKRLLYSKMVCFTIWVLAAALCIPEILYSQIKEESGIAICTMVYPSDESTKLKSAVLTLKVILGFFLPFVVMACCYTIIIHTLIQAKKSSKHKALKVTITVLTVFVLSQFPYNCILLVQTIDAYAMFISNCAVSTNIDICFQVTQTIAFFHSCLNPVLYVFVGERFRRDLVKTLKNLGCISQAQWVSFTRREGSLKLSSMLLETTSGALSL
The following molecules are shown together with reported inhibition at 100 µM values.
Give the quantity in %, number only.

Give recorded inhibition at 100 µM. "CNCc1ccc(-n2cccc2)c(NS(=O)(=O)c2ccccc2)c1" 22

Give recorded inhibition at 100 µM. "NCc1ccc(-c2ccco2)c(NS(=O)(=O)c2ccccc2)c1" 15

Give recorded inhibition at 100 µM. "O=S(=O)(Nc1ccc(CN2CC(F)C2)cc1-c1ccco1)c1ccsc1" 30

Give recorded inhibition at 100 µM. "CNCc1ccc(-c2ccco2)c(NS(=O)(=O)c2ccsc2)c1" 25

Give recorded inhibition at 100 µM. "CNCc1ccc(N(C)S(=O)(=O)c2ccsc2)c(-c2ccco2)c1" 10

Give recorded inhibition at 100 µM. "CNCc1ccc(-c2cccs2)c(NS(=O)(=O)c2ccc(F)cc2)c1" 30

Give recorded inhibition at 100 µM. "O=S(=O)(Nc1ccc(CNC2CC2)cc1-c1ccco1)c1ccsc1" 10

Give recorded inhibition at 100 µM. "CNCc1ccc(-c2cc[nH]n2)c(NS(=O)(=O)c2ccccc2)c1" 8

Give recorded inhibition at 100 µM. "NCCc1ccc(NS(=O)(=O)c2ccsc2)c(-c2ccco2)c1" 25

The record that follows has no inhibition at 100 µM shown yet.
Give recorded inhibition at 100 µM. "CNCc1ccc(-c2ccc(C)o2)c(NS(=O)(=O)c2ccccc2)c1" 35

----------
test system: DNBS induced colitis in Wistar rats; assay: DNBS induced colitis model in Wistar rats; assay type: in vivo, rat; conditions: mean; oral once a day Day 0 to Day 6; compounds 10 mg/kg, osalazine sodium 300 mg/kg
measurementLabel: Ulcer length (cm)
Give the quantity in cm, number only.

A selection of reference data follows.
Retrieve Ulcer length on DNBS induced colitis in Wistar rats; query CNCc1ccc(-c2cc[nH]n2)c(NS(=O)(=O)c2ccccc2)c1 [IA-55] 0.60

Retrieve Ulcer length on DNBS induced colitis in Wistar rats; query O=C([O-])c1cc(/N=N/c2ccc(O)c(C(=O)[O-])c2)ccc1O.[Na+].[Na+] [osalazine sodium, reference compound] 0.71

Retrieve Ulcer length on DNBS induced colitis in Wistar rats; query CNCc1ccc(-c2nccs2)c(NS(=O)(=O)c2ccccc2)c1 [IA-51] 0.31

Retrieve Ulcer length on DNBS induced colitis in Wistar rats; query CNCc1ccc(NS(=O)(=O)c2ccsc2)c(-c2ccco2)c1 [IA-30] 0.33

The record that follows has no Ulcer length shown yet.
Retrieve Ulcer length on DNBS induced colitis in Wistar rats; query NCc1ccc(NS(=O)(=O)c2ccsc2)c(-c2ccco2)c1 [ID-5] 0.34

----------
molecular target: mTRPA1 (Mus musculus); assay: IonWorks Barracuda (IWB) automated patch clamp, TRPA1 inhibitory activity; details: HEK293 cells stably expressing mTRPA1, current induced by AITC, amplitude at +100 mV; read-out: IC50 (inhibition activity on TRPA1)
Sequence (Q8BLA8 whole entry): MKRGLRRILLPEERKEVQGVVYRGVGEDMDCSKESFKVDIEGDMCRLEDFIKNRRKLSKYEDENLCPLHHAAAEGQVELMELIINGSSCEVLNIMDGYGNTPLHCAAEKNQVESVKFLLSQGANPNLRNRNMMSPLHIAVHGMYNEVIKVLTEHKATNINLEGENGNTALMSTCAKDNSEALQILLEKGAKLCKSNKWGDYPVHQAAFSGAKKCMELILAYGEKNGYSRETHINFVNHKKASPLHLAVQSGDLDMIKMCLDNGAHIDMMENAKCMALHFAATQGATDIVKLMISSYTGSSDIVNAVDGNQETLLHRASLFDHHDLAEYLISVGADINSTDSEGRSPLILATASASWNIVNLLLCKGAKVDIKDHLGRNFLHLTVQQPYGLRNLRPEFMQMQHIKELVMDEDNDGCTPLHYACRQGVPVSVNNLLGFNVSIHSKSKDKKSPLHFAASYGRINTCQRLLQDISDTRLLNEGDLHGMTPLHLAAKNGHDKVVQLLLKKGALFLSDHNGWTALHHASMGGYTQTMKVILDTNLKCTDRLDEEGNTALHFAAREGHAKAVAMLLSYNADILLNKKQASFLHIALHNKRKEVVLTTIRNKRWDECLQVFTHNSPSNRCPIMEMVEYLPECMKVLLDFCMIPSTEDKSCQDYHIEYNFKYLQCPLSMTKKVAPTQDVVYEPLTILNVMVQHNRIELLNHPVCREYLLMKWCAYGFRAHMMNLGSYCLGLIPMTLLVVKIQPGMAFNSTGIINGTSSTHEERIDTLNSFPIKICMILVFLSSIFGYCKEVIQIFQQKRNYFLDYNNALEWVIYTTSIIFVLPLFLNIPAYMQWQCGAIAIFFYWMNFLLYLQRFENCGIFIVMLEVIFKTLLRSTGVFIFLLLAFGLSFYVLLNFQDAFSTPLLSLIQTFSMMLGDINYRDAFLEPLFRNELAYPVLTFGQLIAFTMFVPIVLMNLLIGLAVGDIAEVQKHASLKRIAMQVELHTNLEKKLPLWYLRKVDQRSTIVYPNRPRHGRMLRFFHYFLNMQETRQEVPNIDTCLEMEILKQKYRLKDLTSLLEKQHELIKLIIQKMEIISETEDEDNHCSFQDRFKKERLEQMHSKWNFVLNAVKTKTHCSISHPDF
measurementLabel: IC50

Give recorded IC50. "NCc1ccc(NS(=O)(=O)c2ccsc2)c(-c2ccco2)c1" < 1 µM

Give recorded IC50. "CNCc1ccc(-c2cnn(C)c2)c(NS(=O)(=O)c2ccccc2)c1" 10 to 20 µM

Give recorded IC50. "CNCc1ccc(NS(=O)(=O)c2ccccc2)c(-c2ccco2)c1" 1 to 5 µM

Give recorded IC50. "CNCc1ccc(NS(=O)(=O)c2cccnc2)c(-c2ccco2)c1" 5 to 10 µM

Give recorded IC50. "CNCc1ccc(-c2cccs2)c(NS(=O)(=O)c2ccsc2)c1" 1 to 5 µM

New cases:
Give recorded IC50. "CNCc1ccc(-c2ccco2)c(NS(=O)(=O)c2ccc(Cl)cc2)c1" 5 to 10 µM

Give recorded IC50. CC(N)c1ccc(NS(=O)(=O)c2ccccc2)c(-c2ccco2)c1 (stereo not drawn) 1 to 5 µM
